Entries and their cell viability
Tested on: Mono-Mac-6
method: cell viability (% survival relative to DMSO control, bortezomib = 0%); higher = less cytotoxic
protocolConditions: 100 nM; 72 h
Number only, in %; omit the unit.

NS(=O)(=O)c1ccc([N+](=O)[O-])cc1 [4-Nitrobenzenesulfonamide]
98.1
Cc1coc2c1C(=O)C(=O)c1c-2ccc2c1CCCC2(C)C
102
O=C(O)CCCCC(CCSCc1ccccc1)SCc1ccccc1 (centres undefined)
96.3
CN(C)C(=O)[C@H](O)[C@H](Cc1ccccc1)NC(=O)c1cc2cc(Cl)ccc2[nH]1
103

*Q* Given the compound C=C(C=NNC(=N)N)NNC(=N)N , what is its reported cell viability?
*A* 85.5

*Q* Okay, and C[C@](N)(Cc1ccc(O)cc1)C(=O)O ?
*A* 107

*Q* Okay, and O=C(O)c1cc(N=Nc2ccc(S(=O)(=O)Nc3ccccn3)cc2)ccc1O ?
*A* 120

*Q* Okay, and Cc1c(-c2ccc(-c3ccccc3F)cc2)nc2ccc(F)cc2c1C(=O)O ?
*A* 97.9

*Q* Okay, and C=C(C)[C@H]1Cc2c(ccc3c2O[C@@H]2COc4cc(OC)c(OC)cc4[C@@H]2C3=O)O1 ?
*A* 76.7

* * *

System: KU-812
method: cell viability (% survival relative to DMSO control, bortezomib = 0%); higher = less cytotoxic
protocolConditions: 100 nM; 72 h
Entries and their cell viability
Number only, in %; omit the unit.

Solved entries:
C[C@](N)(Cc1ccc(O)cc1)C(=O)O
102
O=C(C1CC1)N1CC[C@@H](C=C2NNC(=O)N2c2ccc(-c3ccc4occc4c3)cc2)C1
99.9

*Q* Given the molecule Nc1ccccc1C(=O)C[C@H](N)C(=O)O , what is its reported cell viability?
*A* 99.5

*Q* Okay, and Cc1ccccc1C(C(=O)NC1CCCCC1)N(C(=O)Cn1ccnc1C)c1cccc(F)c1 (configuration not stated) ?
*A* 109

*Q* Okay, and NCCCC(N)(C(=O)O)C(F)F (configuration not stated) ?
*A* 83.1

*Q* Okay, and COc1cc(/C=C/C(=O)N2CCC=CC2=O)cc(OC)c1OC ?
*A* 94.9

*Q* Okay, and Nc1nc(Cl)nc2c1ncn2[C@H]1C[C@H](O)[C@@H](CO)O1 ?
*A* 53.3

*Q* Okay, and C=C(C=NNC(=N)N)NNC(=N)N ?
*A* 96.5

* * *

Entries and their IC50 (cell viability)
Test system: NOMO-1
protocolConditions: 72 h

Solved entries:
CCC(=O)N1CCN(c2ccc(-n3c(=O)ccc4cnc5ccc(-c6cnc7ccccc7c6)cc5c43)cc2C(F)(F)F)CC1
0.672 µM
CC1(C)[C@@H](O[C@H]2O[C@H](C(=O)O)[C@@H](O)[C@H](O)[C@H]2O[C@@H]2O[C@H](C(=O)O)[C@@H](O)[C@H](O)[C@H]2O)CC[C@]2(C)[C@H]3C(=O)C=C4[C@@H]5C[C@@](C)(C(=O)O)CC[C@]5(C)CC[C@@]4(C)[C@]3(C)CC[C@@H]12
> 10 µM
CC(C)c1cc2c(c(O)c1O)[C@@]1(C(=O)O)CCCC(C)(C)[C@@H]1CC2
> 10 µM
CC[C@@]1(O)C(=O)OCc2c1cc1n(c2=O)Cc2cc3c(CN(C)C)c(O)ccc3nc2-1
0.0405 µM
Oc1ccc(Nc2nc(-c3ccc(Cl)cc3)cs2)cc1
> 10 µM

*Q* Given the molecule COc1ccc(CNC(=O)Nc2ncc([N+](=O)[O-])s2)cc1 , what is its reported IC50 (cell viability)?
*A* > 10 µM

*Q* Okay, and COc1ccc(C(=O)Nc2c(Cl)cncc2Cl)cc1OC1CCCC1 ?
*A* > 10 µM

*Q* Okay, and COc1ccc2c(C(=S)N(C)CC(=O)O)cccc2c1C(F)(F)F ?
*A* > 10 µM

*Q* Okay, and CCN(CC)CCCC(C)Nc1ccnc2cc(Cl)ccc12 (stereo not drawn) ?
*A* > 10 µM

*Q* Okay, and CCOC(=O)c1cncn1[C@H](C)c1ccccc1 [Etomidate] ?
*A* > 10 µM

*Q* Okay, and O=C(O)CCCCC(CCSCc1ccccc1)SCc1ccccc1 (stereo not drawn) ?
*A* > 10 µM

*Q* Okay, and O=C(O)Cn1nnc(-c2cc(N3CCC(Oc4cc(F)ccc4Br)CC3)no2)n1 ?
*A* > 10 µM

*Q* Okay, and N#CC(C#N)=NNc1ccc(OC(F)(F)F)cc1 ?
*A* 3.01 µM

*Q* Okay, and CCCCC/C=C\C/C=C\C/C=C\C/C=C\CCCCN1C(=O)C=CC1=O [N-Arachidonylmaleimide] ?
*A* > 10 µM

*Q* Okay, and COC(=O)[C@]12CCC(C)(C)C[C@H]1[C@H]1C(=O)C=C3[C@@]4(C)C=C(C#N)C(=O)C(C)(C)[C@@H]4CC[C@@]3(C)[C@]1(C)CC2 ?
*A* > 10 µM

*Q* Okay, and O=C(NNc1ccccc1)c1ccncc1 ?
*A* > 10 µM

*Q* Okay, and CCCCCCCCCCC[C@@H](C[C@@H]1OC(=O)[C@H]1CCCCCC)OC(=O)[C@H](CC(C)C)NC=O ?
*A* > 10 µM

*Q* Okay, and Cc1coc2c1C(=O)C(=O)c1c-2ccc2c1CCCC2(C)C ?
*A* > 10 µM

Every entry's value here was drawn from the supplement of paper PMC8671470.
